Tested on: H1299 cells
Assay: On-chip (ACE digital microfluidic) sorafenib dose-response, cell viability by Calcein-AM cell count
Assay type: cell-based, Human
Settings: Homo sapiens, NCI-H1299, read-out: inhibitory sorafenib concentration achieving half-maximal viability level (IC50), on-chip, control (guide targeting eGFP), fitted sigmoid curve
pIC50: −log10 of the molar value. Counter-ions that a name gives are not always drawn.
measured property: pIC50

- CNC(=O)c1cc(Oc2ccc(NC(=O)Nc3ccc(Cl)c(C(F)(F)F)c3)cc2)ccn1 [sorafenib, sorafenib tosylate]: 5.12
